Data credit: PubChem BioAssay AID2685

# assayDetails: qHTS Assay for Lipid Storage Modulators in Drosophila S3 Cells
# conditionParameters: BODIPY lipid droplet fluorescence, 18-24 h, cells fed with added oleic acid; series mostly up to 46.1 µM
Screen size: about 320,000 compounds; about 2,100 (0.66%) were called active. About 53% were inconclusive and are not listed. Calls come from the whole dose curve; as a rule, active = well fitted inhibition curve with a large enough effect in the signal ratio, with a control signal flat (not every such curve was filed as active); inconclusive = small, poorly fitted or top-dose-only effect, or effect the other way, or a change in a side signal; inactive = flat fitted curve, though single readings scatter; the % refers to the signal ratio. Shown is part of a subset that was picked to be rich in actives.
Outcome field: choose from active, inactive

> print(dat)
                               smilesstring  discretelabel
1       Cc1c(C)n(Cc2ccccc2)c2ncnc(NCCCO)c12       inactive
2  OCCN1CCN(c2cc(C(F)(F)F)nc3c(F)cccc23)CC1       inactive
3  COc1ccccc1CNC(=O)CCCc1nnc2n(C)c(=O)c3sccc3n12         active
4  O=C(CCCn1c(=O)[nH]c2ccsc2c1=O)N1CCN(c2ccccn2)CC1       inactive
5  CCn1c(=O)c2sccc2n2c(CCCC(=O)N3CCN(c4ccccn4)CC3)nnc12         active

(Q) Which outcome was entered for the compound "CCOC(=O)CNC(=O)CSc1nc(Cc2cccs2)nc2ccccc12" in this test?
(A) inactive

---

Below, each entry is listed with its recorded cell number change.
# assayDetails: qHTS Assay for Lipid Storage Modulators in Drosophila S3 Cells;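 for cell number change: cells counted by Cell Tracker Red CMTPX staining in the red channel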
# conditionParameters: BODIPY lipid droplet fluorescence, 18-24 h, cells fed with added oleic acid; measured here: cell count max response
Hit rate of the full screen: of about 320,000 compounds, about 2,100 (0.66%) were called active. Roughly 53% stayed inconclusive and do not appear here. This excerpt belongs to a sample that is enriched for actives.
Could you give me the number in %? Just the number is fine.

Here's what some known entries look like.
> print(dat)
                                   compound  outputunit  result
1  COc1ccc(C(C)N2CC34C=CC(O3)C(C(=O)OCC(C)C)C4C2=O)cc1 (stereo not given)           %  -0.854
2  CCn1c(=O)n(CC)c2cc(N3CCCC3)c(NC(=O)c3cc(Cl)ccc3OC)cc21           %   -12.8
3  Cc1ccc(C2CC(C(F)F)n3ncc(C(=O)Nc4c(C)nn(Cc5c(F)cccc5Cl)c4C)c3N2)cc1 (stereo not given)           %      11

(Q) Quote cell number change reported for Cc1ccc(NC(=S)NC(CO)C(O)c2ccc([N+](=O)[O-])cc2)cc1 (stereo not given) please.
(A) -1.73

(Q) Quote cell number change reported for "COC(=O)CCC(=O)Nc1ccc(Br)cc1" please.
(A) -3.41

(Q) Quote cell number change reported for "COc1ccc(OC)c(NC(=O)CCN2C(=O)c3cccc([N+](=O)[O-])c3C2=O)c1" please.
(A) 12.8

(Q) Quote cell number change reported for "N/C(=N\OC(=O)C1CCCCC1)c1cccnc1" please.
(A) -2.17

---

# assayDetails: qHTS Assay for Lipid Storage Modulators in Drosophila S3 Cells;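 for cell number change: cells counted by Cell Tracker Red CMTPX staining in the red channel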
# conditionParameters: BODIPY lipid droplet fluorescence, 18-24 h, cells fed with added oleic acid; measured here: cell count max response
Screen size: about 320,000 compounds; about 2,100 (0.66%) were called active. Not shown: some 53% with an inconclusive outcome. This is one part of a sample in which actives are shown more often than they occur.
valueType: cell number change
Write the quantity with the unit trailing the number.

> print(dat)
                                 compound           valuetype  result
1  COc1cccc(-c2noc(CCCC(=O)N3CCOCC3)n2)c1  cell number change  -4.07%

(Q) Quote cell number change reported for COc1ccc(C(CC(=O)O)NS(=O)(=O)c2ccc(C)cc2)cc1OC (centres undefined) please.
(A) -5.13%

---

Below, each entry is listed with its recorded cell number change.
# assayDetails: qHTS Assay for Lipid Storage Modulators in Drosophila S3 Cells;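 for cell number change: cells counted by Cell Tracker Red CMTPX staining in the red channel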
# conditionParameters: BODIPY lipid droplet fluorescence, 18-24 h, cells fed with added oleic acid; measured here: cell count max response
# Description: NIH Molecular Libraries Probe Production Centers Network [MLPCN] NIH Chemical Genomics Center [NCGC] […] Triacsin C (Sigma-Aldrich T-4540), an inhibitor of long-chain fatty acyl CoA synthetase that blocks synthesis of triglycerides, was used as a positive control for lipid under-storage. […] Fluorescence was detected by excitation of the fluorophores with a 488-nm laser on an Acumen Explorer (TTP Lab Tech). […] Cells were detected using channel 3 (575-640 nm) with 5-um width and 100-um depth filters. […]
In all, about 320,000 compounds went through this assay and about 2,100 (0.66%) were called active. Roughly 53% stayed inconclusive and do not appear here. The entries come from a sample that favours actives as a whole.
Could you give me the number in %? Just the number is fine.

Here's what some known entries look like.
> print(dat)
                                   compound  result
1  Cc1ccc(-c2nn(C)c(=O)c3ccccc23)cc1CNC(=O)/C=C/c1ccccc1   -24.2
2               O=C1c2ccccc2C(=O)C1c1ccccc1    3.81

(Q) Quote cell number change reported for "N#CCOc1ccccc1/C=C/c1nc2ccccc2c(=O)[nH]1" please.
(A) 5.41

---

# assayDetails: qHTS Assay for Lipid Storage Modulators in Drosophila S3 Cells
# conditionParameters: BODIPY lipid droplet fluorescence, 18-24 h, cells fed with added oleic acid; series mostly up to 46.1 µM
In all, about 320,000 compounds went through this assay and about 2,100 (0.66%) were called active. Another 53% or so got no clear call; they are omitted. Calls come from the whole dose curve; as a rule, active = well fitted inhibition curve with a large enough effect in the signal ratio, with a control signal flat (not every such curve was filed as active); inconclusive = small, poorly fitted or top-dose-only effect, or effect the other way, or a change in a side signal; inactive = flat fitted curve, though single readings scatter; the % refers to the signal ratio. This is one part of a sample in which actives are shown more often than they occur.
Outcome field: choose from label 1 (active), label 0 (inactive)

> print(dat)
                                   compound  discretelabel
1  CCCc1c(C(=O)N/N=C(/C)c2ccncc2)nnn1-c1nonc1N        label 0
2  C=CCn1c(CNC(=O)c2ccccc2F)nnc1SCC(=O)NC(C)c1ccccc1 (stereo not drawn)        label 0
3  C/C(CCc1ccco1)=N/NC(=O)CCC(=O)Nc1cccc(Cl)c1        label 0
4      Cc1cccc(C(=O)Nc2sc3c(c2C#N)CCCCC3)c1        label 0
5  CC1CCC2(CC1)NC(=O)N(CC(=O)NC(=O)Nc1ccc3c(c1)OCCO3)C2=O (stereo not drawn)        label 0

(Q) Which outcome was entered for the compound "CCS(=O)(=O)N1CCC(C(=O)NCc2ccc(OC)cc2OC)CC1" in this test?
(A) label 0

(Q) Which outcome was entered for the compound Cc1ccc(C(=O)N2CCC3(CC2)Oc2ccc(F)cc2C(=O)C32CC(c3ccccc3)=NO2)s1 (stereo not drawn) in this test?
(A) label 0

(Q) Which outcome was entered for the compound "COc1cc(/C=C/C(=O)Nc2ccc3nc4n(c(=O)c3c2)CCCC4)cc(OC)c1OC" in this test?
(A) label 0

(Q) Which outcome was entered for the compound "COc1ccccc1CNC(=O)c1cccs1" in this test?
(A) label 0

---

# assayDetails: qHTS Assay for Lipid Storage Modulators in Drosophila S3 Cells;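 for cell number change: cells counted by Cell Tracker Red CMTPX staining in the red channel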
# conditionParameters: BODIPY lipid droplet fluorescence, 18-24 h, cells fed with added oleic acid; measured here: cell count max response
Hit rate of the full screen: of about 320,000 compounds, about 2,100 (0.66%) were called active. Roughly 53% stayed inconclusive and do not appear here. The entries come from a sample that favours actives as a whole.
valueType: cell number change (%)
Could you give me the number in %? Just the number is fine.

(Q) Quote cell number change reported for "COc1ccc(-c2csc3ncn(-c4ccccc4)c(=O)c23)cc1OC" please.
(A) -7.4

---

# assayDetails: qHTS Assay for Lipid Storage Modulators in Drosophila S3 Cells
# conditionParameters: BODIPY lipid droplet fluorescence, 18-24 h, cells fed with added oleic acid; series mostly up to 46.1 µM
In all, about 320,000 compounds went through this assay and about 2,100 (0.66%) were called active. Roughly 53% stayed inconclusive and do not appear here. The call rests on the fitted dose curve; in most records, active means well fitted inhibition curve with a large enough effect in the signal ratio, with a control signal flat (not every such curve was filed as active); inconclusive means small, poorly fitted or top-dose-only effect, or effect the other way, or a change in a side signal; inactive means flat fitted curve, though single readings scatter; the % refers to the signal ratio. The full list was thinned out, with actives kept by preference.
Outcome field: choose from 1 (yes) for active, 0 (no) for inactive

> print(dat)
                                compound  discretelabel
1  CCCC(=O)OCC(=O)c1[nH]c(C)c(C(C)=O)c1C         0 (no)

(Q) Which outcome was entered for the compound "COc1cc(/C=C(\C#N)C(=O)NCc2cccs2)ccc1O" in this test?
(A) 0 (no)

(Q) Which outcome was entered for the compound "CC(=O)c1c(C)[nH]c(C(=O)COC(=O)CN(C)S(=O)(=O)c2ccc(Cl)cc2)c1C" in this test?
(A) 1 (yes)

(Q) Which outcome was entered for the compound "CN(CC(=O)OCC(N)=O)S(=O)(=O)c1ccc(Cl)cc1" in this test?
(A) 0 (no)

(Q) Which outcome was entered for the compound "CCN1CCN(c2ccc(S(=O)(=O)N3CCCCC3)cc2NC(=O)c2ccc(F)cc2)CC1" in this test?
(A) 0 (no)

(Q) Which outcome was entered for the compound COC(=O)[C@H](CC(C)C)NC(=O)NC1CCCCC1C (stereo not given in full) in this test?
(A) 1 (yes)

(Q) Which outcome was entered for the compound "CCN1C(=O)[C@H]2[C@@H](c3ccc(C)cc3)N3C(=O)N(c4ccc(C(F)(F)F)cc4)C(=O)[C@@]3(CC(C)C)[C@H]2C1=O" in this test?
(A) 1 (yes)

(Q) Which outcome was entered for the compound COC(=O)[C@H](CC(C)C)NC(=O)N1CCCCC1C (stereo not given in full) in this test?
(A) 0 (no)

(Q) Which outcome was entered for the compound COC(=O)[C@@H](NC(=O)NC1CCCCC1C)C(C)C (stereo not given in full) in this test?
(A) 0 (no)

(Q) Which outcome was entered for the compound "COc1ccc([C@@H]2[C@@H]3C(=O)N(C(C)(C)C)C(=O)[C@@H]3[C@]3(Cc4ccc(Cl)cc4)C(=O)N(c4ccc(OC)cc4)C(=O)N23)cc1" in this test?
(A) 0 (no)
